target: Fibroblast growth factor receptor 3 (Homo sapiens, UniProt P22607, V555M); assay: Inhibition of FGFR3 V555M mutant (unknown origin) by mobility shift assay
Sequence (P22607 23-806 V555M limits assumed): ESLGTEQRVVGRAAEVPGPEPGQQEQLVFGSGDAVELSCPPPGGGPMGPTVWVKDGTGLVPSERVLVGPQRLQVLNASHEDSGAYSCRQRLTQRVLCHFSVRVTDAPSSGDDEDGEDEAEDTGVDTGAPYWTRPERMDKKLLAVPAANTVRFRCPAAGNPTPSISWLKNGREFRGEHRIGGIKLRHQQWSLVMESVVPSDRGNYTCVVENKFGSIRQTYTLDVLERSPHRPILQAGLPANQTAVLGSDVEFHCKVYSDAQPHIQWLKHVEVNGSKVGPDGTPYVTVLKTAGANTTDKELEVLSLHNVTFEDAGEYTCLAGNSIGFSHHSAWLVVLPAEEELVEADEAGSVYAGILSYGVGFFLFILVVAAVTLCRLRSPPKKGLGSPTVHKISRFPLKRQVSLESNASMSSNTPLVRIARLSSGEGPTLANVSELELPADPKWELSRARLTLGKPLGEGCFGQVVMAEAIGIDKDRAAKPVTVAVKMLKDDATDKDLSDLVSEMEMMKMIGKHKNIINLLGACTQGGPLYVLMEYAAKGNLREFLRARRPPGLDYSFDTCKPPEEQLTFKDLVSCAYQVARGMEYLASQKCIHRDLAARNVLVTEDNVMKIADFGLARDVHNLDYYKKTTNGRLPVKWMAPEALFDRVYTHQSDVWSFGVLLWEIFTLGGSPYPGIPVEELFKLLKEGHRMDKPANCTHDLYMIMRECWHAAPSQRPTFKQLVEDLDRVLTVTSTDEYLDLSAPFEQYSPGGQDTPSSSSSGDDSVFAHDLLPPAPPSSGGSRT
experimental-readout: IC50 (nM)

> print(dat)
                                test.smiles  unit.abbreviation  test.result
1  C[C@@H](Oc1ccc2[nH]nc(-c3ccc(N4CC5(C4)CN(S(C)(=O)=O)C5)nc3)c2c1)c1c(Cl)cncc1Cl                 nM            2

###

assay: Volume of distribution in Sprague-Dawley rat at 2 mg/kg, iv measured for 24 hrs by LC-MS/MS analysis; format: ADME, organism-based; conditions: in vivo
experimental-readout: Vd (L/kg)

> print(dat)
                                test.smiles  experimental.readout  unit.abbreviation  test.result
1  C[C@@H](Oc1ccc2[nH]nc(-c3ccc(N4CC5(C4)CN(S(C)(=O)=O)C5)nc3)c2c1)c1c(Cl)cncc1Cl                    Vd               L/kg          2.5
